This collection of values is drawn from ChEMBL document CHEMBL1135394.

STUDY_SYSTEM: 5-hydroxytryptamine receptor 1A (Homo sapiens)
Sequence (P08908 whole entry): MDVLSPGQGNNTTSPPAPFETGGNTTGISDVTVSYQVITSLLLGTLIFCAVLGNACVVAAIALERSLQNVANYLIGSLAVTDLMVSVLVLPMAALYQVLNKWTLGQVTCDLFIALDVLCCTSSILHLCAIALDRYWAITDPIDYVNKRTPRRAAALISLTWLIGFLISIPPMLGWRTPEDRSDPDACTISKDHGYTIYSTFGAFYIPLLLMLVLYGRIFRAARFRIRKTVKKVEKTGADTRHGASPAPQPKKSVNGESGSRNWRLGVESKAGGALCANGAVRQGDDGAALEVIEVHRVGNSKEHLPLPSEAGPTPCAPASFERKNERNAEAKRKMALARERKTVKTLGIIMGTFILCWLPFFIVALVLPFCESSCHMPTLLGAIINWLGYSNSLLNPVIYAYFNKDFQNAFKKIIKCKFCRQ
PROTOCOL: Binding affinity at human 5-hydroxytryptamine 1A receptor by inhibition of [3H]8-OH-DPAT binding in Chinese hamster ovary cell line
VALUE_TYPE: Ki (nM)

Guide cases for Ki, answers given:
COMPOUND: O[C@@H]1c2cc(F)ccc2C[C@H]1N1CCC(c2cccc3c2OCCO3)CC1 (relative stereo)
RECORDED_MEASUREMENT: 0.776
//
COMPOUND: O[C@@H]1c2cc(F)c(F)cc2C[C@H]1N1CCN(c2cccc3c2OCCO3)CC1 (relative stereo)
RECORDED_MEASUREMENT: 2.14
//
COMPOUND: c1ccc2c(c1)CC(N1CCN(c3cccc4c3OCCO4)CC1)C2
RECORDED_MEASUREMENT: 0.794
//
COMPOUND: O[C@@H]1c2cc3c(cc2C[C@H]1N1CCC(c2cccc4c2OCCO4)CC1)OCO3 (relative stereo)
RECORDED_MEASUREMENT: 0.525
//
COMPOUND: O[C@@H]1c2ccccc2C[C@H]1N1CCN(c2cccc3c2OCCO3)CC1 (relative stereo)
RECORDED_MEASUREMENT: 1.62
//
COMPOUND: O[C@@H]1c2ccc(F)cc2C[C@H]1N1CCC(c2cc(F)cc3c2OCCC3)CC1 (relative stereo)
RECORDED_MEASUREMENT: 4.9
//
COMPOUND: O[C@@H]1c2ccc(F)cc2C[C@H]1N1CCC(c2cccc3c2OCCO3)CC1 (relative stereo)
RECORDED_MEASUREMENT: 0.437
//
COMPOUND: O[C@@H]1c2ccccc2C[C@H]1N1CC=C(c2cccc3c2OCCO3)CC1 (relative stereo)
RECORDED_MEASUREMENT: 0.832

(a) COc1ccc2c(c1)C[C@@H](N1CCN(c3cccc4c3OCCO4)CC1)[C@@H]2O (stereo in doubt; (-))
(b) O[C@@H]1c2ccc(F)cc2C[C@H]1N1CCN(c2cccc3c2OCCO3)CC1 (stereo in doubt; (-))
Hello, I am sorting some records. Could you say if a or b has the smaller Ki value? Your choice should be expressed through its label.
a
(a: 1.02 nM, b: 2.04 nM)

(a) COc1ccc2c(c1)C[C@@H](N1CCN(c3cccc4c3OCCO4)CC1)[C@@H]2O (racemic)
(b) COc1ccc2c(c1)[C@@H](O)[C@H](N1CCN(c3cccc4c3OCCO4)CC1)C2 (relative stereo)
(c) O=[N+]([O-])c1ccc2c(c1)[C@@H](O)[C@H](N1CCN(c3cccc4c3OCCO4)CC1)C2 (relative stereo)
# rank_down: sort by Ki, max first Lab note: record answer as labels in requested order.
a, c, b
(a: 1.26 nM, c: 0.741 nM, b: 0.447 nM)

----------
PROTOCOL: Selectivity ratio towards Alpha-1 adrenergic receptor to human 5-hydroxytryptamine 1A receptor
VALUE_TYPE: Ratio

Guide cases for Ratio, answers given:
COMPOUND: O[C@@H]1c2cc3c(cc2C[C@H]1N1CCC(c2cccc4c2OCCO4)CC1)OCO3 (relative stereo)
Ratio: 56
//
COMPOUND: O[C@@H]1c2ccc(F)cc2C[C@H]1N1CC=C(c2cccc3c2OCCO3)CC1 (relative stereo)
Ratio: 128
//
COMPOUND: O[C@@H]1c2ccccc2C[C@H]1N1CC=C(c2cccc3c2OCCO3)CC1 (relative stereo)
Ratio: 120

(1) O[C@@H]1c2ccccc2C[C@H]1N1CCN(c2cccc3c2OCCO3)CC1 (relative stereo)
(2) O[C@@H]1c2ccc(F)cc2C[C@H]1N1CCC(c2cccc3c2OCCO3)CC1 (relative stereo)
Hello, I am sorting some records. Could you say if 1 or 2 has the smaller Ratio value? Your choice should be expressed through its label.
2
(2: 148, 1: 575)
